Measured inhibition at 1 µM, listed per entry.
target-system: wild-type human cardiac sodium channel, hNaV 1.5 (Late INa) (Homo sapiens)
Sequence (Q14524 whole entry): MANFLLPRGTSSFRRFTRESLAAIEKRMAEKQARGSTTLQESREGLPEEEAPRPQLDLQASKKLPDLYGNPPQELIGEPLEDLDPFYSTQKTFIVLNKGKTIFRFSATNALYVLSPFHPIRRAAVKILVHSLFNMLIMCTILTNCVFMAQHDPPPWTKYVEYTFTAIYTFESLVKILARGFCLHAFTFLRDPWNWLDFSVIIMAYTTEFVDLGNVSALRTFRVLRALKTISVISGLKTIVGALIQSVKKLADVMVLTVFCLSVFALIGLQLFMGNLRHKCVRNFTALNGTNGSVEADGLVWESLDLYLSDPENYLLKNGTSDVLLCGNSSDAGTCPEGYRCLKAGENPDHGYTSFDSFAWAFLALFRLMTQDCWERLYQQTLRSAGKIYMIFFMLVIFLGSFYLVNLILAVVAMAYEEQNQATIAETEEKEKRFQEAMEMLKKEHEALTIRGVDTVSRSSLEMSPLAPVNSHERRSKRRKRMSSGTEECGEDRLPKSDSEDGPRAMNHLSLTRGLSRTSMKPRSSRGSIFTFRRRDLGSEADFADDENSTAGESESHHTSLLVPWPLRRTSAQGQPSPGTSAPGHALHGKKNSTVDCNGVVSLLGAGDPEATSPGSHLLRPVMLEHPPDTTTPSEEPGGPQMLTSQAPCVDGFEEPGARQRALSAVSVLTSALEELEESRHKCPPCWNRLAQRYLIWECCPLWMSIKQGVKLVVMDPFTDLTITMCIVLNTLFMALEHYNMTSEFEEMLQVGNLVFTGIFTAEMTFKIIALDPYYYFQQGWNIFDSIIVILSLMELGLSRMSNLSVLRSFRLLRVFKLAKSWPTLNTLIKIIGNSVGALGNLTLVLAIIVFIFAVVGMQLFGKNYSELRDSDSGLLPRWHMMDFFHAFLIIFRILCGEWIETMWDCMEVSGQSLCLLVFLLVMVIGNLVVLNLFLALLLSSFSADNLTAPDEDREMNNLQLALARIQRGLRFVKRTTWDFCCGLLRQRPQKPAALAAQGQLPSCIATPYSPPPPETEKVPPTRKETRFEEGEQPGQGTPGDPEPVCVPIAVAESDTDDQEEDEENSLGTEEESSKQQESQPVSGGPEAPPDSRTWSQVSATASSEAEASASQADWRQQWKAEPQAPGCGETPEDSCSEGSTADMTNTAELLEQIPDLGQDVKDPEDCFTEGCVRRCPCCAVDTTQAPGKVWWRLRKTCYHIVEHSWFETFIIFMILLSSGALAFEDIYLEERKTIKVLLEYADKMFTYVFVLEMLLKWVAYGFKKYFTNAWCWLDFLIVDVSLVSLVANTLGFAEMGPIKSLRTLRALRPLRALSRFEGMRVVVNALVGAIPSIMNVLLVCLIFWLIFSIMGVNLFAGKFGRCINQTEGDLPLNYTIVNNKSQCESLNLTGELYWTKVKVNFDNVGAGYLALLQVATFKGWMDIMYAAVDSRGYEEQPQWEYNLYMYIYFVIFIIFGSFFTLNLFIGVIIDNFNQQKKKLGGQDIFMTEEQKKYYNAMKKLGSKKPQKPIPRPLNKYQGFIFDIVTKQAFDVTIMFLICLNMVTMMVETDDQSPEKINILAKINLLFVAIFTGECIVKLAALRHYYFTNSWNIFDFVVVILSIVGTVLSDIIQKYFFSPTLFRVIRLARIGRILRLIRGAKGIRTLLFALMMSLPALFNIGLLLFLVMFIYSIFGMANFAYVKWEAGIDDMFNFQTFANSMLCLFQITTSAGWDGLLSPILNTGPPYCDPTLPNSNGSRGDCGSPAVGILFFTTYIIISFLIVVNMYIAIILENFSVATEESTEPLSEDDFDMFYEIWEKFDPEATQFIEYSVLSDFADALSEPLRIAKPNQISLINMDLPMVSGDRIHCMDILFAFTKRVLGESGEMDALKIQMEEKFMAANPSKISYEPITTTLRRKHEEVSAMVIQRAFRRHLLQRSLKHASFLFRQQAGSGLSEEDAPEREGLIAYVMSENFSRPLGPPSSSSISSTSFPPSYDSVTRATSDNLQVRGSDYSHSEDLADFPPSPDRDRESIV
test-method-notes: Late INa screening assay (whole cell patch clamp, QPatch, Tefluthrin-induced late current)
Type: cell-based
condition-label: HEK293, % inhibition (percent block of late INa) at 1 uM; HEK293 hNaV1.5; 10 μM Tefluthrin; read-out: Nav1.5 Late INa 1 uM

chem-smiles: O=C1Oc2ccc(-c3ccc(OC(F)(F)F)cc3F)cc2CN1Cc1ccccn1
result-units: %
inhibition at 1 µM: 44.7

chem-smiles: CCCOc1cc(OC(F)(F)F)ccc1-c1ccc2c(c1)CN(Cc1ncccn1)C(=O)O2
result-units: %
inhibition at 1 µM: 45.4

chem-smiles: Cc1cnc(CN2Cc3cc(-c4ccc(OC(F)(F)F)cc4F)ccc3OC2=O)nc1
result-units: %
inhibition at 1 µM: 39.3

chem-smiles: Cc1csc(CN2Cc3cc(-c4ccc(Cl)c(Cl)c4)ccc3OC2=O)n1
result-units: %
inhibition at 1 µM: 39

====

target-system: hNaV1.2 (SCN2A) (Homo sapiens, UniProt Q99250)
Construct: expressed in transfected cells
Sequence (Q99250 whole entry): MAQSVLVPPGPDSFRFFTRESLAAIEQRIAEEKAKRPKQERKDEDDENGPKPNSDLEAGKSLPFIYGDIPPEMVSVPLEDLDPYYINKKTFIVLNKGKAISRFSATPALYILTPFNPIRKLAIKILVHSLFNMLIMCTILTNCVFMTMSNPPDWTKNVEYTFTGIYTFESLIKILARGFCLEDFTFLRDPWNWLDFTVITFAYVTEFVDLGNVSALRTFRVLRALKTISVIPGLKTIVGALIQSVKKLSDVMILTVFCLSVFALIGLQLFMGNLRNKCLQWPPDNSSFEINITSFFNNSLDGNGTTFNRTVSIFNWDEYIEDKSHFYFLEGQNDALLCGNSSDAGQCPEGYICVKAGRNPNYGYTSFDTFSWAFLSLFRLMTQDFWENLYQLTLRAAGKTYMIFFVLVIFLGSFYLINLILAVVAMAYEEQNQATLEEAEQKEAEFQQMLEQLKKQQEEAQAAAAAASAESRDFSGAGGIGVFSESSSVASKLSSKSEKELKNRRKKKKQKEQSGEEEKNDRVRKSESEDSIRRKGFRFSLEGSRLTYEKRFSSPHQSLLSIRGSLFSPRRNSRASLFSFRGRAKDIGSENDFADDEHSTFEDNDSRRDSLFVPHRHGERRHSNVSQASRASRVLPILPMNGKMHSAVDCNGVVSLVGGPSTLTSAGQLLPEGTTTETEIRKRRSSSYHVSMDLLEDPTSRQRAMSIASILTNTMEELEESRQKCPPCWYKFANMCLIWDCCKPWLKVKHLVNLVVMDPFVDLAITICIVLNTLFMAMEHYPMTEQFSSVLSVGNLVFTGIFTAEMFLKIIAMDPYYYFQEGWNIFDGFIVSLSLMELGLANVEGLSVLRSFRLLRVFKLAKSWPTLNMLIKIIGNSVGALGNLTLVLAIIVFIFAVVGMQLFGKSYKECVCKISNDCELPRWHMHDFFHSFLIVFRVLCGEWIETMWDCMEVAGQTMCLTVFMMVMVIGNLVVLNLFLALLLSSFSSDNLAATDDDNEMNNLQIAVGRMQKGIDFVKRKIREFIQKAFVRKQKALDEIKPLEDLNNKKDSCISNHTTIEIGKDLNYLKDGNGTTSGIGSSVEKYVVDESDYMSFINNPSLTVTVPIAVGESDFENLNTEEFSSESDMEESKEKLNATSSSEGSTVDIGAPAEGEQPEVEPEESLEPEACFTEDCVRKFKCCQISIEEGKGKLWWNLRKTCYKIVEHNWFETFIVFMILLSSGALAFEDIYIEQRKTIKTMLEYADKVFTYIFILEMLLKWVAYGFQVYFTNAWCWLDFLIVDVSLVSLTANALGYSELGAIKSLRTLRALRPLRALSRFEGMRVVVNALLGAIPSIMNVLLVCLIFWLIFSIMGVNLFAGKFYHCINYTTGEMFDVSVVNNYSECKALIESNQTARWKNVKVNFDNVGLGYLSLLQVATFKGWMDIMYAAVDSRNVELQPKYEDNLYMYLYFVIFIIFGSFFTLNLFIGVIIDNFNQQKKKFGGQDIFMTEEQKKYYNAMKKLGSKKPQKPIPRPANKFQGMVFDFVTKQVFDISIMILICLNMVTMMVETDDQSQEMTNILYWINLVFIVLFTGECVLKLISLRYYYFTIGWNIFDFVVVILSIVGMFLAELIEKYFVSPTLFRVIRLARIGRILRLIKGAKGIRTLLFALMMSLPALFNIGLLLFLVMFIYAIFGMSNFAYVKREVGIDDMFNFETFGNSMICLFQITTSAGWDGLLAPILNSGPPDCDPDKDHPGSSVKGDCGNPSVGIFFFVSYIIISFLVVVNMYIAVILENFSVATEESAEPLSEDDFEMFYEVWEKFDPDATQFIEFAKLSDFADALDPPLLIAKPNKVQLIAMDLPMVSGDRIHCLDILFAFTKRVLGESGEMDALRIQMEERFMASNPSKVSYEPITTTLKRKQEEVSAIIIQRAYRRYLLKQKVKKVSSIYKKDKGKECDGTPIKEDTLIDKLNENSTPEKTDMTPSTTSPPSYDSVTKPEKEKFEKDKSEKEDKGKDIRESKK
Sequence (Q07699 19-218 partner): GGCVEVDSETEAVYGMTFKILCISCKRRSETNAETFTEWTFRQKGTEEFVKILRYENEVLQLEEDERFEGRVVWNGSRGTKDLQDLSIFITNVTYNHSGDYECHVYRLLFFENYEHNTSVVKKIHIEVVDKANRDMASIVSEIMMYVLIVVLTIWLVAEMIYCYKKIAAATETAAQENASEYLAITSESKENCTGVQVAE
Sequence (O60939 30-215 partner): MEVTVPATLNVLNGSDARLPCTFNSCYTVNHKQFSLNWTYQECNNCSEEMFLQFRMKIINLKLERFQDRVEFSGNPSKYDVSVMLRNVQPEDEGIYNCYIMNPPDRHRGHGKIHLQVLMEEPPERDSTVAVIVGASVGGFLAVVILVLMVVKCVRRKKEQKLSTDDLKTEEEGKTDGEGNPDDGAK
test-method-notes: Use-dependent inhibition of the CNS NaV1.2 sodium channel
Type: cell-based
condition-label: HEK-293; % inhibition, use-dependent block at 10 uM; 25 Hz; read-out: Nav1.2 UDB 25 Hz 10 uM
Readings of inhibition at 10 µM for the listed compounds
endpoint-name: inhibition at 10 µM (%)

chem-smiles: Cc1cnc(CN2Cc3cc(-c4ccc(C(F)(F)F)cc4F)ccc3OC2=O)nc1
recorded-number: 36.2
//
chem-smiles: Cc1csc(CN2Cc3cc(-c4ccc(OC(F)(F)F)c(F)c4)ccc3OC2=O)n1
recorded-number: 73.6
//
chem-smiles: COc1cc(C(F)(F)F)ccc1-c1ccc2c(c1)CN(Cc1cccc(C)n1)C(=O)O2
recorded-number: 68.4
//
chem-smiles: O=C1Oc2ccc(-c3ccc(C(F)(F)F)cc3F)cc2CN1Cc1ncccn1
recorded-number: 55.9
//
chem-smiles: CC(C)Oc1cc(OC(F)(F)F)ccc1-c1ccc2c(c1)CN(Cc1ncccn1)C(=O)O2
recorded-number: 59.3
//
chem-smiles: O=C1Oc2ccc(-c3ccc(OC(F)(F)F)cc3F)cc2CN1Cc1ncccn1
recorded-number: 56.3
//
chem-smiles: Cc1cnc(CN2Cc3cc(-c4ccc(C(F)(F)F)cc4C)ccc3OC2=O)nc1
recorded-number: 48.9
//
chem-smiles: Cc1cc(-c2ccc3c(c2)CN(Cc2ncccn2)C(=O)O3)ccc1OC(F)(F)F
recorded-number: 24.9

====

target-system: hNaV1.1 (SCN1A) (Homo sapiens)
test-method-notes: Use-dependent inhibition of the CNS NaV1.1 sodium channel
Type: cell-based
condition-label: % inhibition, use-dependent block at 10 uM; 25 Hz; read-out: Nav1.1 UDB 25 Hz 10 uM
Record Criterion met whenever inhibition at 10 µM is at 70% or higher; record Criterion not met when lower.

molecule: O=C1Oc2ccc(-c3ccc(C(F)(F)F)cc3)cc2CN1CCc1ncccn1 [Example 17]
label: Criterion not met
--
molecule: COc1cc(C(F)(F)F)ccc1-c1ccc2c(c1)CN(Cc1cccc(C)n1)C(=O)O2 [Example 44]
label: Criterion met
--
molecule: COc1cc(OC(F)(F)F)ccc1-c1ccc2c(c1)CN(Cc1ncccn1)C(=O)O2 [Example 9]
label: Criterion not met
--
molecule: COc1cc(C(F)(F)F)ccc1-c1ccc2c(c1)CN(Cc1ncccn1)C(=O)O2 [Example 34]
label: Criterion met
--
molecule: O=C1Oc2ccc(-c3ccc(Cl)c(F)c3)cc2CN1Cc1ncccn1 [Example 6]
label: Criterion not met
--
molecule: Cc1cnc(CN2Cc3cc(-c4ccc(OC(F)(F)F)cc4)ccc3OC2=O)nc1 [Example 12]
label: Criterion met
--
molecule: Cc1cccc(CN2Cc3cc(-c4ccc(C(F)(F)F)cc4F)ccc3OC2=O)n1 [Example 45]
label: Criterion met

====

target-system: wild-type human cardiac sodium channel, hNaV 1.5 (Peak INa) (Homo sapiens)
test-method-notes: Peak INa screening assay (tonic block and use-dependent block)
Assay type: cell-based
condition-label: % inhibition, use-dependent block of peak INa at 3 uM; 3 Hz, pulse 50; read-out: Nav1.5 Peak UDB 3 Hz 3 uM
The molecules listed here are annotated with their inhibition at 3 µM.

molecule: Cc1csc(CN2Cc3cc(-c4ccc(OC(F)(F)F)c(F)c4)ccc3OC2=O)n1 [Example 53]
value-operator: <
inhibition at 3 µM (%): 5

molecule: Cc1csc(CN2Cc3cc(-c4ccc(OC(F)(F)F)cc4F)ccc3OC2=O)n1 [Example 55]
value-operator: <
inhibition at 3 µM (%): 5

molecule: Cc1ccnc(CN2Cc3cc(-c4ccc(OC(F)(F)F)cc4)ccc3OC2=O)n1 [Example 29]
value-operator: =
inhibition at 3 µM (%): 14.1

molecule: CC(C)Oc1cc(OC(F)(F)F)ccc1-c1ccc2c(c1)CN(Cc1ncccn1)C(=O)O2 [Example 39]
value-operator: =
inhibition at 3 µM (%): 5.9

molecule: O=C1Oc2ccc(-c3ccc(OC(F)(F)F)cc3F)cc2CN1Cc1ncccn1 [Example 7]
value-operator: <
inhibition at 3 µM (%): 5

molecule: CC1c2cc(-c3ccc(Cl)c(F)c3)ccc2OC(=O)N1Cc1ncccn1 (stereo not drawn) [Example 11]
value-operator: =
inhibition at 3 µM (%): 5.6

====

target-system: hNaV1.2 (SCN2A) (Homo sapiens, UniProt Q99250)
Construct: expressed in transfected cells
test-method-notes: Use-dependent inhibition of the CNS NaV1.2 sodium channel
Type: cell-based
condition-label: HEK-293; % inhibition, use-dependent block at 1 uM; 25 Hz; read-out: Nav1.2 UDB 25 Hz 1 uM
endpoint-name: inhibition at 1 µM (%)

chem-smiles: Cc1csc(CN2Cc3cc(-c4ccc(OC(F)(F)F)c(C)c4)ccc3OC2=O)n1
value-operator: =
recorded-number: 6.1
--
chem-smiles: COc1cc(OC(F)(F)F)ccc1-c1ccc2c(c1)CN(Cc1nccc(C)n1)C(=O)O2
value-operator: =
recorded-number: 13.2
--
chem-smiles: Cc1cccc(CN2Cc3cc(-c4ccc(C(F)(F)F)cc4F)ccc3OC2=O)n1
value-operator: =
recorded-number: 10.4
--
chem-smiles: COc1cc(C(F)(F)F)ccc1-c1ccc2c(c1)CN(Cc1ncc(C)cn1)C(=O)O2
value-operator: =
recorded-number: 13.3
--
chem-smiles: O=C1Oc2ccc(-c3ccc(C(F)(F)F)cc3)cc2CN1Cc1ccncc1
value-operator: =
recorded-number: 19.8
--
chem-smiles: O=C1Oc2ccc(-c3ccc(OC(F)(F)F)c(F)c3)cc2CN1Cc1ncccn1
value-operator: =
recorded-number: 30.2
--
chem-smiles: CCCOc1cc(OC(F)(F)F)ccc1-c1ccc2c(c1)CN(Cc1ncccn1)C(=O)O2
value-operator: =
recorded-number: 17.1
--
chem-smiles: COc1cc(OC(F)(F)F)ccc1-c1ccc2c(c1)CN(Cc1nc(C)cs1)C(=O)O2
value-operator: =
recorded-number: 10.6
--
chem-smiles: Cc1ccnc(CN2Cc3cc(-c4ccc(OC(F)(F)F)cc4F)ccc3OC2=O)n1
value-operator: =
recorded-number: 8.1
--
chem-smiles: Cc1cnc(CN2Cc3cc(-c4ccc(C(F)(F)F)cc4C)ccc3OC2=O)nc1
value-operator: <
recorded-number: 5
--
chem-smiles: O=C1Oc2ccc(-c3ccc(OC(F)(F)F)cc3)cc2CN1Cc1ccccn1
value-operator: =
recorded-number: 30.2
--
chem-smiles: COc1cc(OC(F)(F)F)ccc1-c1ccc2c(c1)CN(Cc1cccc(C)n1)C(=O)O2
value-operator: =
recorded-number: 22.4
--
chem-smiles: Cc1cnc(CN2Cc3cc(-c4ccc(OC(F)(F)F)cc4)ccc3OC2=O)nc1
value-operator: =
recorded-number: 15.4
--
chem-smiles: Cc1csc(CN2Cc3cc(-c4ccc(OC(F)(F)F)cc4)ccc3OC2=O)n1
value-operator: =
recorded-number: 20.8
--
chem-smiles: CC(C)Oc1cc(C(F)(F)F)ccc1-c1ccc2c(c1)CN(Cc1ncccn1)C(=O)O2
value-operator: =
recorded-number: 29.9
--
chem-smiles: CC(C)Oc1cc(OC(F)(F)F)ccc1-c1ccc2c(c1)CN(Cc1ncccn1)C(=O)O2
value-operator: =
recorded-number: 16
--
chem-smiles: O=C1Oc2ccc(-c3ccc(OC(F)(F)F)cc3F)cc2CN1Cc1ccccn1
value-operator: <
recorded-number: 5
--
chem-smiles: O=C1Oc2ccc(-c3ccc(C(F)(F)F)cc3)cc2CN1CCc1ncccn1
value-operator: =
recorded-number: 34.2
--
chem-smiles: COc1cc(OC(F)(F)F)ccc1-c1ccc2c(c1)CN(Cc1ncccn1)C(=O)O2
value-operator: =
recorded-number: 7.9
--
chem-smiles: O=C1Oc2ccc(-c3ccc(C(F)(F)F)cc3F)cc2CN1Cc1ncccn1
value-operator: =
recorded-number: 19.1
--
chem-smiles: O=C1Oc2ccc(-c3ccc4c(c3)OC(F)(F)O4)cc2CN1Cc1ncccn1
value-operator: =
recorded-number: 28
--
chem-smiles: CCOc1cc(OC(F)(F)F)ccc1-c1ccc2c(c1)CN(Cc1ncccn1)C(=O)O2
value-operator: =
recorded-number: 16.7
--
chem-smiles: O=C1Oc2ccc(-c3ccc(OC(F)(F)F)cc3F)cc2CN1Cc1ncccn1
value-operator: =
recorded-number: 18
--
chem-smiles: Cc1cc(OC(F)(F)F)ccc1-c1ccc2c(c1)CN(Cc1ncccn1)C(=O)O2
value-operator: <
recorded-number: 5
--
chem-smiles: Cc1cc(C(F)(F)F)ccc1-c1ccc2c(c1)CN(Cc1ncccn1)C(=O)O2
value-operator: =
recorded-number: 7.8
--
chem-smiles: O=C1Oc2ccc(-c3ccc(C(F)(F)F)cc3)cc2CN1Cc1ccccn1
value-operator: =
recorded-number: 32.7
--
chem-smiles: CCCOc1cc(C(F)(F)F)ccc1-c1ccc2c(c1)CN(CCc1ncccn1)C(=O)O2
value-operator: =
recorded-number: 30.6
--
chem-smiles: COc1cc(C(F)(F)F)ccc1-c1ccc2c(c1)CN(Cc1cccc(C)n1)C(=O)O2
value-operator: =
recorded-number: 20.9
--
chem-smiles: Cc1cnc(CN2Cc3cc(-c4ccc(C(F)(F)F)cc4)ccc3OC2=O)nc1
value-operator: =
recorded-number: 21.4
